- target_of_assay: human mAChR M1 (Homo sapiens, UniProt P11229)
- Sequence (P11229 whole entry): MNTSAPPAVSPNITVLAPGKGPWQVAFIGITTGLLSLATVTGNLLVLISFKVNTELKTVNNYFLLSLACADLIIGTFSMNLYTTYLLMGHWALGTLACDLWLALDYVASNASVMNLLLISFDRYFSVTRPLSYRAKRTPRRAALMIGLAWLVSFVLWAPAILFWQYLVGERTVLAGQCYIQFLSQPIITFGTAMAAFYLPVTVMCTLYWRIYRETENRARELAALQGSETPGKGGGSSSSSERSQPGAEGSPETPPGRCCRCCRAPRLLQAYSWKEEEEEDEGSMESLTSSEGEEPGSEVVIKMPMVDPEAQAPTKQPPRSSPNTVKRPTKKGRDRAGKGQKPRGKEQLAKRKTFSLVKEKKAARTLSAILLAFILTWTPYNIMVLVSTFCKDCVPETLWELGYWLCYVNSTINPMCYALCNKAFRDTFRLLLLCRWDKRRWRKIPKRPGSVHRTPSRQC
- method_description: mAChR M1 cell-based functional assay: calcium mobilization, positive allosteric modulator mode (increase in EC20 acetylcholine response)
- run_parameters: Table 2; human M1; read-out: Human M1 Emax (%)
- Procedure: a. Cell Lines Expressing Muscarinic Acetylcholine Receptors Chinese hamster ovary (CHO-K1) cells stably expressing rat (r)M1 were purchased from the American Type Culture Collection and cultured according to their indicated protocol. […] Calcium flux was measured using the Functional Drug Screening System (FDSS) 6000 (Hamamatsu Corporation, Tokyo, Japan) as an increase in the fluorescent static ratio. […]
The threshold is inclusive: Emax of exactly 70% counts as TRUE; values below receive FALSE.

compound: Cn1ncc2nc(C(=O)N[C@@H]3CC[C@H]3O)cc(Cc3ccc(-n4cccn4)cc3)c21 [Compound 496]
target_of_assay: human mAChR M1 (Homo sapiens, UniProt P11229)
assigned_category: FALSE

compound: Cn1ccc2nc(C(=O)NCC3CCOCC3)cc(Cc3ccc(-c4nccs4)cc3)c21 [Compound 486]
target_of_assay: human mAChR M1 (Homo sapiens, UniProt P11229)
assigned_category: FALSE

compound: O=C(N[C@@H]1CCOC1)c1cc(Cc2ccc(-c3cscn3)cc2)c2sccc2n1 [Compound 207]
target_of_assay: human mAChR M1 (Homo sapiens, UniProt P11229)
assigned_category: TRUE

compound: Cn1ccc(-c2ccc(Cc3cc(C(=O)NC4CC(F)(F)C4)nc4ccsc34)cn2)n1 [Compound 420]
target_of_assay: human mAChR M1 (Homo sapiens, UniProt P11229)
assigned_category: FALSE

compound: O=C(NC1CCN2CCCC12)c1cc(Cc2ccc(-c3cscn3)cc2)c2sccc2n1 (centres unmarked) [Compound 220]
target_of_assay: human mAChR M1 (Homo sapiens, UniProt P11229)
assigned_category: TRUE

compound: O=C(NC1CCOCC1)c1cc(Cc2c(F)cc(-c3cscn3)cc2F)c2sccc2n1 [Compound 271]
target_of_assay: human mAChR M1 (Homo sapiens, UniProt P11229)
assigned_category: FALSE

Consider the record given below.
query: Form field: Emax at least 70%? Entry: O=C(N[C@H]1COCC[C@@H]1O)c1cc(Cc2ccc(-c3cscn3)cc2)c2sccc2n1 [Compound 216]
result: TRUE

###

Provide the recorded Emax for the entries that follow.
- target_of_assay: human mAChR M1 (Homo sapiens)
- method_description: mAChR M1 cell-based functional assay: calcium mobilization, positive allosteric modulator mode (increase in EC20 acetylcholine response)
- run_parameters: Table 2; human M1; read-out: Human M1 Emax (%)
A bare number is not enough; add the unit after it.

Some solved cases for reference:
compound: O=C(NC1CCCCNC1=O)c1cc(Cc2ccc(-n3cccn3)cc2)c2sccc2n1 (stereo not shown)
Emax: 70.5%
//
compound: Cn1cc(-c2ccc(Cc3cc(C(=O)N[C@H]4CCCC[C@@H]4O)nc4ccsc34)cn2)cn1
Emax: 71.2%
//
compound: Cn1cc(-c2ccc(Cc3cc(C(=O)NC4COC4)nc4ccsc34)cn2)cn1
Emax: 78.8%

Each compound below has a recorded value; state its Emax.
1. Cn1cc(-c2ccc(Cc3cc(C(=O)NC4CCOC(C)(C)C4)nc4ccsc34)cn2)cn1 (stereo not shown)
2. Cc1csc2c(Cc3ccc(-n4cccn4)cc3)cc(C(=O)NC3CCCCNC3=O)nc12 (stereo not shown)
3. Cn1ccc(-c2ccc(Cc3cc(C(=O)NC[C@@H]4CCOC4)nc4ccsc34)cn2)n1
4. Cc1ccc(Cc2cc(C(=O)N[C@@H]3CCCCC[C@H]3O)nc3c(C)csc23)cn1
5. Cn1ccc(-c2ccc(Cc3cc(C(=O)N[C@@H]4COCC[C@H]4O)nc4ccsc34)cn2)n1
6. Cc1csc2c(Cc3ccc(-c4ccn(C)n4)cc3)cc(C(=O)N[C@H]3CCC[C@@H]3O)nc12
7. Cc1ccc(Cc2cc(C(=O)NC3C4CC5C[C@H]3CC(O)(C5)C4)nc3c(C)csc23)cn1 (stereo partly shown)
8. Cc1csc2c(Cc3ccc(-n4cccn4)cc3)cc(C(=O)N[C@H]3CCOC3)nc12

result:
1: 58.4%; 2: 28.8%; 3: 86.5%; 4: 88.5%; 5: 63.4%; 6: 70.7%; 7: 54.6%; 8: 43.1%
